# Test system: Caco-2 cells monolayer
# assay_name: CaCo2 permeability and efflux assay
# Type: in vitro ADME
# run_conditions: CaCo2, apical to basal, 120 min
A > B(10 EE-06 cm/s) listing for selected compounds.

Here is how some compounds turned out for A > B(10 EE-06 cm/s).
COc1ccc(N2C(=O)N(c3c(C(F)F)csc3Cl)Cc3cnc(Nc4ccc(C5CCN(C)CC5)cc4)nc32)nc1 [AA2]	12.9 10 EE-06 cm/s
COc1ccc(N2C(=O)N(c3c(C)csc3Cl)Cc3cnc(Nc4ccc(C5CCN(C)CC5)cc4OC)nc32)nc1 [AA1]	10.5 10 EE-06 cm/s
COc1ccc(N2C(=O)N(c3c(C)cccc3Cl)Cc3cnc(Nc4ccc(C5CCN(C)CC5)cc4OC)nc32)nc1 [PY1, reference compound]	9.5 10 EE-06 cm/s

Now take the following compound into account.
Param item = COc1ccc(N2C(=O)N(c3c(CF)csc3Cl)Cc3cnc(Nc4ccc(C5CCN(C)CC5)cc4)nc32)nc1 [AA3] ; retrieve measured A > B(10 EE-06 cm/s).
8.4 10 EE-06 cm/s
